conditions: pH 7.4
readout: T, time constant of cyanide binding (exponential fit of heme methyl peak intensities) (min)
Note: unit min is implicit; provide only the numeric part.

Here's what some known entries look like.
>  <molecule>
C120Sox (A isomer) (protein, UniProt Q9NPG2 1-151, looked up, variant C120S, oxidized, heme A isomer) Neuroglobin: MERPEPELIRQSWRAVSRSPLEHGTVLFARLFALEPDLLPLFQYNCRQFSSPEDCLSSPEFLDHIRKVMLVIDAAVTNVEDLSSLEEYLASLGRKHRAVGVKLSSFSTVGESLLYMLEKSLGPAFTPATRAAWSQLYGAVVQAMSRGWDGE

>  <recorded.value>
18

$$$$
>  <molecule>
C120Sred (A isomer) (protein, UniProt Q9NPG2 1-151, looked up, variant C120S, reduced, heme A isomer) Neuroglobin: MERPEPELIRQSWRAVSRSPLEHGTVLFARLFALEPDLLPLFQYNCRQFSSPEDCLSSPEFLDHIRKVMLVIDAAVTNVEDLSSLEEYLASLGRKHRAVGVKLSSFSTVGESLLYMLEKSLGPAFTPATRAAWSQLYGAVVQAMSRGWDGE

>  <recorded.value>
138

$$$$
>  <molecule>
C120Sred (B isomer) (protein, UniProt Q9NPG2 1-151, looked up, variant C120S, reduced, heme B isomer) Neuroglobin: MERPEPELIRQSWRAVSRSPLEHGTVLFARLFALEPDLLPLFQYNCRQFSSPEDCLSSPEFLDHIRKVMLVIDAAVTNVEDLSSLEEYLASLGRKHRAVGVKLSSFSTVGESLLYMLEKSLGPAFTPATRAAWSQLYGAVVQAMSRGWDGE

>  <recorded.value>
255

$$$$

Now turn to the next molecule.
(Q) Provide measured T, time constant of cyanide binding (exponential fit of heme methyl peak intensities) value, entry: C120Sox (B isomer) (protein, UniProt Q9NPG2 1-151, looked up, variant C120S, oxidized, heme B isomer) Neuroglobin: MERPEPELIRQSWRAVSRSPLEHGTVLFARLFALEPDLLPLFQYNCRQFSSPEDCLSSPEFLDHIRKVMLVIDAAVTNVEDLSSLEEYLASLGRKHRAVGVKLSSFSTVGESLLYMLEKSLGPAFTPATRAAWSQLYGAVVQAMSRGWDGE
(A) 119
